- System: Vero E6 infected with SARS-CoV-2
- measurementDescription: inhibition of SARS-CoV-2 cytopathic effect; higher = more antiviral protection, active = above 15
- conditionDescription: 10000 nM; 48 h
For each entry below, report its inhibition of SARS-CoV-2 cytopathic effect value.
Report the figure in % without appending any unit label.

# lookup: inhibition of SARS-CoV-2 cytopathic effect of CO[C@@]12[C@H](COC(N)=O)C3=C(C(=O)C(C)=C(N)C3=O)N1C[C@@H]1N[C@@H]12 -5.17

Given O=C(O)CCCc1c[nH]c2ccccc12 , state its recorded inhibition of SARS-CoV-2 cytopathic effect. -2.44

What value of inhibition of SARS-CoV-2 cytopathic effect has been recorded for this entry: O=C(O)COC(=O)Cc1ccccc1Nc1c(Cl)cccc1Cl 0.58

Endpoint output: inhibition of SARS-CoV-2 cytopathic effect of Clc1ccc(C(Cn2ccnc2)OCc2csc3c(Cl)cccc23)c(Cl)c1 (configuration not stated) . Value? -2.97

Reported inhibition of SARS-CoV-2 cytopathic effect for CC(=O)Nc1cccc2c1c(Sc1ccc(Cl)cc1)c(C)n2CC(=O)O : what is it? -0.66

Any idea what inhibition of SARS-CoV-2 cytopathic effect was measured for Cc1c(C)c2c(c(C)c1OC(=O)CCC(=O)O)CC[C@@](C)(CCC[C@H](C)CCC[C@H](C)CCCC(C)C)O2 [D-alpha-tocopheryl-succinate] ? -2.64

# get_value(readout='inhibition of SARS-CoV-2 cytopathic effect', item= C/C(=C\c1csc(C)n1)[C@@H]1C[C@@H]2O[C@]2(C)CCC[C@H](C)[C@H](O)[C@@H](C)C(=O)C(C)(C)[C@@H](O)CC(=O)O1 ) -0.53

Find the recorded inhibition of SARS-CoV-2 cytopathic effect belonging to CN(C)CCOC(C)(c1ccccc1)c1ccccn1 (configuration not stated) and report it. 1.43

Report inhibition of SARS-CoV-2 cytopathic effect for CO[C@H]1/C=C/O[C@@]2(C)Oc3c(C)c(O)c4c(O)c(c(/C=N/N=C/N5CCCCC5)c(O)c4c3C2=O)NC(=O)/C(C)=C\C=C\[C@H](C)[C@H](O)[C@@H](C)[C@@H](O)[C@@H](C)[C@H](OC(C)=O)[C@@H]1C please. 3.27

Report inhibition of SARS-CoV-2 cytopathic effect for CCOC(=O)C1=C(C)NC(C)=C(C(=O)OCC)C1c1ccccc1/C=C/C(=O)OC(C)(C)C please. 3.85

Data request, read-out inhibition of SARS-CoV-2 cytopathic effect, for CCCCN1[C@@H]2CC[C@H]1C[C@@H](OC(c1ccc(F)cc1)c1ccc(F)cc1)C2 37

Item under review: Oc1ccc(OCc2ccccc2)cc1 . Reported inhibition of SARS-CoV-2 cytopathic effect? -2.93

# query: inhibition of SARS-CoV-2 cytopathic effect of entry Oc1ccc(Cl)cc1 -1.37

// inhibition of SARS-CoV-2 cytopathic effect lookup, key: Cc1cccc(Oc2nc3c(C)cccn3c(=O)c2/C=C(\C#N)c2nc3ccccc3s2)c1 0.62

Request the reported inhibition of SARS-CoV-2 cytopathic effect associated with O=C1NC(=O)[C@@H](c2cn3c4c(cccc24)CCC3)[C@@H]1c1c[nH]c2ccccc12 [tivantinib] 2.92

Can you share its inhibition of SARS-CoV-2 cytopathic effect? I mean this molecule: O=C1NCC2(CCN(CCc3ccccc3)CC2)O1 [fenspiride] 0.43

Form field: reported inhibition of SARS-CoV-2 cytopathic effect of CCN(CC)Cc1cc(Nc2ccnc3cc(Cl)ccc23)ccc1O 44.7

Ref: the supplement of paper PMC13380429
